Molecular target: T1, hGITR.mmh (human)
T1 construct: soluble monomeric construct; also called human (h) GITR.mmh; monomeric human GITR
T1 chain: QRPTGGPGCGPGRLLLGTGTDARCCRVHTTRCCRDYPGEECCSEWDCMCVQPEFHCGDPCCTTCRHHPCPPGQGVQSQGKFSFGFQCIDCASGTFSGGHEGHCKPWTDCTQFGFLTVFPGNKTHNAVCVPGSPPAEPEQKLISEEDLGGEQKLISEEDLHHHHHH
Assay: SPR 37C, mAb capture
Assignment: determine reported t½ for the given binders.
Field note: include the unit after the figure.

Lookup: Which t½ reading was recorded for the binder H1H14523P (antibody, human IgG1, V domains shown, human IgG1 (H1H)) VH: QVQLVESGGGVVQPGRSLRLSCEASGFTFSSYGMHWVRQAPGKGLEWVAVIWYSESNKYYTDSMKGRLTISRDNSKNTLYLQMNSLRAEDTAVYYCARGGLLGKYYYYGMDVWGQGTTVTVSS VL: DIQMTQSPSSLSASVGDRVIITCRASQDIRNDLGWYQQKPGKAPKRLIYAASSLQSGVPSRFSGSGSGTEFTLTISSLQPEDFATFYCLQLNSYPYTFGQGTKLEIK ?
Found: 6.2 min

Lookup: Which t½ reading was recorded for the binder H4H14525P (antibody, human IgG4, V domains shown, human IgG4 (H4H)) VH: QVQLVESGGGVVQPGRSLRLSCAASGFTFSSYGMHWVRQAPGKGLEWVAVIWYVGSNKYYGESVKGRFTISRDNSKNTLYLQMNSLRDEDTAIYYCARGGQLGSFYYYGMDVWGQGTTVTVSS VL: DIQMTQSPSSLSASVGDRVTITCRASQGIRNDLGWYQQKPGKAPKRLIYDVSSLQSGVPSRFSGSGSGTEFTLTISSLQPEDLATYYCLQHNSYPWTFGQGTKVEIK ?
Found: 0.7 min

Lookup: Which t½ reading was recorded for the binder H4H14469P (antibody, human IgG4, V domains shown, human IgG4 (H4H)) VH: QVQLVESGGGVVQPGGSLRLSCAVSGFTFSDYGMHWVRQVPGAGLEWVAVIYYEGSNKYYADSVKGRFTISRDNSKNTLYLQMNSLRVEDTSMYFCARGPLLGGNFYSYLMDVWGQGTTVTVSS VL: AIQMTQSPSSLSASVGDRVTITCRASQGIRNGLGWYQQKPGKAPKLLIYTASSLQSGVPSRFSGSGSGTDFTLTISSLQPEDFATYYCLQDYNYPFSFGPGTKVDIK ?
Found: 0.9 min

Lookup: Which t½ reading was recorded for the binder H1H14486P (antibody, human IgG1, V domains shown, human IgG1 (H1H)) VH: QVQLVESGGGVVQPGRSLRLSCAASGFTFSNYGMHWVRQAPGKGLEWVAVIWYPGSNKFYTDSVEGRFTISRDNSKNTVYLQMDSLRAEDTAVYYCARGGALGVDYYYGMDVWGQGTTVTVSS VL: AIQMTQSPSSLSASVGDRVTLTCRASQGIRNDLGWYQQKPGKAPNFLIYSASSLQSGVPSRFSGSGSGTDFTLTISSLQPEDFATYYCLQNYNYPWTFGQGTKVEIK ?
Found: 9.4 min

Lookup: Which t½ reading was recorded for the binder H4H14475P (antibody, human IgG4, V domains shown, human IgG4 (H4H)) VH: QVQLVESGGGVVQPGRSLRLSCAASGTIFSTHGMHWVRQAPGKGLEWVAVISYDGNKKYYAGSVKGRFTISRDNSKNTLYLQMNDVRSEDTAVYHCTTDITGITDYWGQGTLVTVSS VL: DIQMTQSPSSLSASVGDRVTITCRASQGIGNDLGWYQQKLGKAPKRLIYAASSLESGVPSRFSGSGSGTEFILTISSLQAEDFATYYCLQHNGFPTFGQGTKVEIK ?
Found: 0.8 min

Lookup: Which t½ reading was recorded for the binder H4H14470P (antibody, human IgG4, V domains shown, human IgG4 (H4H)) VH: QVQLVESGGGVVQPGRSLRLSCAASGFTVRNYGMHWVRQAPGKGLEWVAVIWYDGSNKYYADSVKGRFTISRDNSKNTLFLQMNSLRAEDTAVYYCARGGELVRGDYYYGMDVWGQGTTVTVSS VL: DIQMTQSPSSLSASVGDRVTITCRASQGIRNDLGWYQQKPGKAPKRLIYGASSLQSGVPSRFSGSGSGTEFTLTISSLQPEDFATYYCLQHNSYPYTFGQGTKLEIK ?
Found: 0.8 min

Lookup: Which t½ reading was recorded for the binder H4H14476P (antibody, human IgG4, V domains shown, human IgG4 (H4H)) VH: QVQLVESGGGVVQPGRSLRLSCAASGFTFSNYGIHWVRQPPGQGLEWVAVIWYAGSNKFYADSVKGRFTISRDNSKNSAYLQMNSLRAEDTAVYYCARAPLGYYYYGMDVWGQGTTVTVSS VL: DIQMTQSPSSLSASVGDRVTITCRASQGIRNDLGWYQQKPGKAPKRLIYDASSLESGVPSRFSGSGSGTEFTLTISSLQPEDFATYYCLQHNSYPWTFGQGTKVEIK ?
Found: 0.9 min

Lookup: Which t½ reading was recorded for the binder H1H14491P (antibody, human IgG1, V domains shown, human IgG1 (H1H)) VH: QVQLVESGGGVVQPGRSLRLSCVASGFTFSDYGMHWVRQAPGKGLEWVAVIWYEGSNKYYADSVTGRFTISRDNSKNTLFLQMNSLKAEDTAEYYCAKDGGQLAYQYYYGMDVWGQGTTVTVSS VL: AIQMTQSPSSLSASVGDRVTLTCRASQGIRNDLGWYQQKPGKAPKSLIYAASNLQSGVPSRFSGSGSGTDFTLTISSLQPEDSATYYCLQDYNYPRTFGQGTKVEIK ?
Found: 7.2 min

Lookup: Which t½ reading was recorded for the binder H1H14503P (antibody, human IgG1, V domains shown, human IgG1 (H1H)) VH: QVQLVESGGGVVQPGRSLRLSCEASGFTFSNYGFHWVRQAPGKGLDWVAVIWYAGSNKFYVDSVQGRFTISRDNSKQILFLQMNSLRAEDSAVYYCVRGGILGIDYYSGMDVWGQGTTVTVSS VL: AIQMTQSPSSLSASVGDRVTITCRASQDIRNDLGWYQQRPGKAPKFLIYSTSSLQSGVPSRFSGSGSGTDFILTISSLQPEDFATYYCLQSHNYPWTFGHGTKVEIK ?
Found: 15.6 min

Lookup: Which t½ reading was recorded for the binder H4H14521P (antibody, human IgG4, V domains shown, human IgG4 (H4H)) VH: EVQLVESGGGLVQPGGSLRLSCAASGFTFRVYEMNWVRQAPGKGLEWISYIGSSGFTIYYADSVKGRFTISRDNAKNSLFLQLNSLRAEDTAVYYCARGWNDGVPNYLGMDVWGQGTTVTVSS VL: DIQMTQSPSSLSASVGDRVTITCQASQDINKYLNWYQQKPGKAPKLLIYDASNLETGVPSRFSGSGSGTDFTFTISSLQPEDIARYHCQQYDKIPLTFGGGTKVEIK ?
Found: 1.5 min
